System: ISC-enriched organoids
Assay: Primary screen, 384-well 2.5-D organoid differentiation (ENR+CD, 6 days): basal lysozyme secretion (LYZ.NS)
Type: cell-based, murine
Settings: Dose 0.40 uM; standard z score of FC
reported_endpoint: Z.LYZ.NS
Give bare numbers.

A selection of reference data follows.
I would be grateful if you could share the reported Z.LYZ.NS for C[C@@H]1C(=O)O[C@H]2C[C@@]34[C@H]5C[C@@H](C(C)(C)C)[C@]36[C@@H](OC(=O)[C@@H]6O)O[C@@]4(C(=O)O5)[C@]21O [Ginkgolide A] .
0.222

Requested read-out: Z.LYZ.NS. Entry: "O=[N+]([O-])C=Cc1ccc2c(c1)OCO2"
−0.088

Param item = "CC(C)C[C@H](NC(=O)[C@@H](NC(=O)c1cccc(-c2ccccc2)n1)[C@@H](C)O)B(O)O" ; retrieve measured Z.LYZ.NS.
−0.664

# context switch: different molecule, same Z.LYZ.NS
For CCCC(C)NC(=O)c1ccc(Cl)c(Cl)c1 (stereo not shown) , what is its reported Z.LYZ.NS?
−0.246

====

System: ISC-enriched organoids
Assay: Primary screen, 384-well 2.5-D organoid differentiation (ENR+CD, 6 days, Target Selective Inhibitor Library, vs whole-plate median): ATP (CellTiter-Glo 3D, CTG)
Conditions: Dose 10.00 uM; standard z score of FC
Where a name gives a salt, the structure may show the parent alone.
reported_endpoint: Z.CTG

# per-item lookup of Z.CTG; items listed below
1. CC(C)(C)NC(=O)[C@H]1CC[C@H]2[C@@H]3CC[C@H]4NC(=O)C=C[C@]4(C)[C@H]3CC[C@]12C [Finasteride]
2. NC(=O)C1CCCc2c1[nH]c1ccc(Cl)cc21 (stereo not drawn) [EX 527 (Selisistat)]
3. CC1=C(C(=O)OC2CCCCC2)C(c2ccc([N+](=O)[O-])cc2)C2=C(CC(C)(C)CC2=O)N1 (stereo not drawn)
4. O=C(O)/C=C/c1ccc(Cn2ccnc2)cc1 [Ozagrel]
5. Cc1ccc(S(=O)(=O)c2ccc([N+](=O)[O-])o2)cc1
6. C1=N/C2=N/c3ccc(OCCN4CCCC4)c(c3)COC/C=C/COCc3cccc(c3)C(=C1)N2 [Pacritinib (SB1518)]
7. COc1cc2nc(N3CCN(C(=O)C4COc5ccccc5O4)CC3)nc(N)c2cc1OC (stereo not drawn) [Doxazosin Mesylate]

["−0.097", 0.766, "−0.819", 0.271, "−1.867", "−3.047", 0.179]

Parameter requested: Z.CTG. Apply to each item below.
1. CCCCCCCCc1ccc(CCC(N)(CO)CO)cc1.Cl [Fingolimod (FTY720) HCl]
2. CC[C@@H]1/C=C/C=C/C[C@H](C)[C@H](O)[C@](C)(O)C(=O)[C@H](C)[C@@H](O)[C@H](C)C(=O)[C@H](C)[C@@H](O)[C@H](C)/C=C/C(=O)O[C@H]2[C@@H](C)[C@@H](CC1)O[C@@]1(CC[C@@H](C)[C@@H](C[C@H](C)O)O1)[C@@H]2C
3. O=[N+]([O-])C=Cc1ccc2c(c1)OCO2
4. CNC(=O)c1cc(Oc2ccc(NC(=O)Nc3cc(C(C)(C)C)nn3-c3ccc4ncccc4c3)c(F)c2)ccn1 [DCC-2036 (Rebastinib)]
5. c1ccc(CNc2nc(NCc3ccccc3)c3ccccc3n2)cc1
6. CN[C@@H](C)C(=O)N[C@H](C(=O)N1CCC[C@H]1C(=O)Nc1snnc1-c1ccccc1)C1CCCCC1

["−3.116", "−2.972", "−0.469", "−0.769", "−2.706", 0.575]

For every record below, what is its Z.CTG?
1. C[C@]12CC[C@@H]3c4ccc(O)cc4C[C@@H](CCCCCCCCC[S+]([O-])CCCC(F)(F)C(F)(F)F)[C@H]3[C@@H]1CC[C@@H]2O (stereo partly drawn)
2. Cc1sc2c(c1C)C(c1ccc(Cl)cc1)=N[C@@H](CC(=O)Nc1ccc(O)cc1)c1nnc(C)n1-2

["−0.488", "−2.169"]

====

Provide the reported Z.CTG of each item.
Tested on: ISC-enriched organoids
Assay: Primary screen, 384-well 2.5-D organoid differentiation (ENR+CD, 6 days, Target Selective Inhibitor Library, vs whole-plate median): ATP (CellTiter-Glo 3D, CTG)
Details: Dose 0.08 uM; primary screen, standard z score
Give bare numbers.

Record excerpt, results attached:
Provide value of Z.CTG for this record tested with ISC-enriched organoids: "O=C(/C=C\n1cnc(-c2cc(C(F)(F)F)cc(C(F)(F)F)c2)n1)N1CC(F)(F)C1"
0.399

Item "O=C(Nc1ccccc1)c1cc([N+](=O)[O-])ccc1Cl" with ISC-enriched organoids - Z.CTG?
0.274

Now for another entry.
Form field - read-out: Z.CTG; system: ISC-enriched organoids; submitted item: "C[C@H](NC(=O)[C@@H](O)c1cc(F)cc(F)c1)C(=O)N[C@@H]1C(=O)N(C)c2ccccc2-c2ccccc21"
0.083

====

System: ISC-enriched organoids
Experiment: Primary screen, 384-well 2.5-D organoid differentiation (ENR+CD, 6 days): basal lysozyme secretion (LYZ.NS)
Type: cell-based, murine
Conditions: Dose 2.00 uM; standard z score of FC
reported_endpoint: Z.LYZ.NS
One number for each entry.

Sample answers from the record:
Give the measured Z.LYZ.NS of "Cc1cnc(-c2cc(N3CCN(C(=O)CCS(C)(=O)=O)CC3)ncc2Cl)c(C)c1" .
0.094

# get_value(readout='Z.LYZ.NS', item= "CCCCCCCCCCCCCCCCn1cc[n+](Cc2ccccc2)c1C.[I-]" )
−1.904

// lookup Z.LYZ.NS for COc1ccc(CNCc2cccc3ccccc23)cc1.Cl [ML133 HCl]
0.633

Reported Z.LYZ.NS for "CC(C)(Cc1ccc2ccccc2c1)NC[C@@H](O)COc1cccc(Cl)c1C#N" : what is it?
−0.674

Please state Z.LYZ.NS for every compound in the list that follows.
1. CC(C)(C)n1nc(-c2ccc(Cl)cc2)c2c(N)ncnc21
2. NCC(=O)Nc1ccc(-n2nc(C(F)(F)F)cc2-c2ccc3c(ccc4ccccc43)c2)cc1

2.354
0.460
